- System: Wolbachia pipientis
- assay_protocol: Anti-Wolbachia Cell-Based Screen
- Format: functional
- Design: scale not given: in the data most compounds retested in dose-response had high values
- recorded_conditions: 5 µM
The campaign covered roughly 48,000 compounds. About 13,000 (27%) showed an effect of 50% or more. The list shows a part of the results.
// Percent Effect lookup, one value per entry

>  <compound>
O=C(C1CCCC1)N1CC2(CCN(C3COC3)C2)Cc2ccccc21 (configuration not stated)

>  <u>
%

>  <Percent Effect>
95.07

$$$$
>  <compound>
CCSC1=Nc2c(cnn2-c2ccc(Cl)cc2)C2=NCCCN12

>  <u>
%

>  <Percent Effect>
119

$$$$
>  <compound>
CSC1=Nc2c(cnn2-c2ccc(C)cc2)C2=NCCCN12

>  <u>
%

>  <Percent Effect>
111.5

$$$$
>  <compound>
O=C(NC1CCOCC1)C1CC(=O)N(Cc2ccccn2)C1 (configuration not stated)

>  <u>
%

>  <Percent Effect>
-4.932

$$$$
>  <compound>
O=C(C1CCCC1)N1CCOc2cccc(F)c21

>  <u>
%

>  <Percent Effect>
1.761

$$$$
>  <compound>
Cc1cc(NC(=O)N2CCC[C@@H]2CO)nn1-c1cccc(Cl)c1

>  <u>
%

>  <Percent Effect>
-10.34

$$$$
>  <compound>
Cc1ccccc1-c1noc(CN2CCn3c(nnc3C3CC3)C2)n1

>  <u>
%

>  <Percent Effect>
9.498

$$$$
>  <compound>
O=C(C1CCCC1)N1CC2(CCN(C3COC3)CC2)Cc2ccccc21

>  <u>
%

>  <Percent Effect>
95.07

$$$$
>  <compound>
c1cnn(CC2CN(Cc3nc(-c4ccsc4)no3)CCO2)c1 (configuration not stated)

>  <u>
%

>  <Percent Effect>
-8.782

$$$$
>  <compound>
Cc1ccccc1-c1noc(CN2CCC(N3CCNC3=O)CC2)n1

>  <u>
%

>  <Percent Effect>
89.22

$$$$
>  <compound>
O=C1CCCCN1CSc1nnnn1-c1ccc(Cl)cc1

>  <u>
%

>  <Percent Effect>
-1.778

$$$$
>  <compound>
O=C(C1CCCC1)N1CC2(CCCN(C3COC3)C2)Cc2ccccc21 (configuration not stated)

>  <u>
%

>  <Percent Effect>
99.05

$$$$

----------
# Percent Effect listing for each entry below
- System: Wolbachia pipientis
- assay_protocol: Anti-Wolbachia Cell-Based Screen
- Assay type: functional
- Design: scale not given: in the data most compounds retested in dose-response had high values
- recorded_conditions: 5 µM
Out of some 48,000 compounds screened, about 13,000 (27%) showed an effect of 50% or more. The list shows a part of the results.

>  <molecule>
CS(=O)(=O)NCCCN1CCCC1Cc1ccccc1 (configuration not stated)

>  <test_system>
Wolbachia pipientis

>  <Percent Effect>
-4.416%

$$$$
>  <molecule>
CS(=O)(=O)CCC(=O)NC1CC(c2cccc(Cl)c2)C1 (configuration not stated)

>  <test_system>
Wolbachia pipientis

>  <Percent Effect>
-6.793%

$$$$
>  <molecule>
Cc1cc(F)ccc1OC1(C(=O)O)CCN(Cc2c[nH]cn2)CC1

>  <test_system>
Wolbachia pipientis

>  <Percent Effect>
-1.435%

$$$$
>  <molecule>
COc1cc(C(=O)N(C)Cc2cc(C(=O)O)c(C)o2)cc(OC)c1OC

>  <test_system>
Wolbachia pipientis

>  <Percent Effect>
-0.7675%

$$$$
>  <molecule>
c1cc(-c2nnc([C@H]3CCN(C4CCOCC4)C3)o2)ccn1

>  <test_system>
Wolbachia pipientis

>  <Percent Effect>
-3.579%

$$$$
>  <molecule>
C[C@@]1(O)CCN(Cc2cc[nH]n2)C[C@H]1Oc1cccc(F)c1

>  <test_system>
Wolbachia pipientis

>  <Percent Effect>
94.39%

$$$$
>  <molecule>
Cc1ccc(NC2CCN(C(=O)Cc3csc(C)n3)CC2)nn1

>  <test_system>
Wolbachia pipientis

>  <Percent Effect>
1.97%

$$$$
>  <molecule>
OCC1CCCN1c1cc(NCc2cccs2)ncn1 (configuration not stated)

>  <test_system>
Wolbachia pipientis

>  <Percent Effect>
94.03%

$$$$
>  <molecule>
Cc1nn(CCO)c(C)c1CNC1CCCCc2ccccc21 (configuration not stated)

>  <test_system>
Wolbachia pipientis

>  <Percent Effect>
2.659%

$$$$
>  <molecule>
COCCN1CCCC(c2ccnc3c(C(N)=O)cnn23)C1 (configuration not stated)

>  <test_system>
Wolbachia pipientis

>  <Percent Effect>
97.31%

$$$$
>  <molecule>
Cc1ccc(NC2CCN(C(=O)Cc3ccc(C)s3)CC2)nn1

>  <test_system>
Wolbachia pipientis

>  <Percent Effect>
88.11%

$$$$
>  <molecule>
CCCN1CCC(Cc2nc(CN3CCN(C)CC3)no2)CC1

>  <test_system>
Wolbachia pipientis

>  <Percent Effect>
-14.74%

$$$$
>  <molecule>
CC(C)(C)c1cnc(CN2CCC(c3ccnn3CCO)CC2)o1

>  <test_system>
Wolbachia pipientis

>  <Percent Effect>
-7.147%

$$$$
>  <molecule>
Cn1ccc(NC2CCN(C3CC3)C2=O)n1 (configuration not stated)

>  <test_system>
Wolbachia pipientis

>  <Percent Effect>
-4.974%

$$$$
>  <molecule>
Cc1cnn(C2CN(CC(O)c3ccccc3)C2)c1 (configuration not stated)

>  <test_system>
Wolbachia pipientis

>  <Percent Effect>
7.133%

$$$$
>  <molecule>
COc1ccccc1OCCN1CCCC(c2cc(C(N)=O)[nH]n2)C1 (configuration not stated)

>  <test_system>
Wolbachia pipientis

>  <Percent Effect>
-3.836%

$$$$
>  <molecule>
COCCN1C[C@@H](C)[C@@]2(COCCN(C(=O)c3cccs3)C2)C1.O=C(O)C(F)(F)F

>  <test_system>
Wolbachia pipientis

>  <Percent Effect>
3.824%

$$$$
>  <molecule>
O=C(NCCc1c[nH]cn1)C1CCCN(C2CCOCC2)C1 (configuration not stated)

>  <test_system>
Wolbachia pipientis

>  <Percent Effect>
-7.633%

$$$$
>  <molecule>
NC(=O)CN(CC1CCOC1)C1CC1 (configuration not stated)

>  <test_system>
Wolbachia pipientis

>  <Percent Effect>
12.45%

$$$$
>  <molecule>
COc1cc2[nH]c(C(=O)O)cc2c(OC)c1C

>  <test_system>
Wolbachia pipientis

>  <Percent Effect>
98.44%

$$$$
>  <molecule>
COc1ncccc1CNc1cc(N2CCCC2CO)ncn1 (configuration not stated)

>  <test_system>
Wolbachia pipientis

>  <Percent Effect>
0.4879%

$$$$
>  <molecule>
COc1cc2[nH]c(=O)c(CN3CCC[C@@H]3C(N)=O)cc2c(OC)c1OC

>  <test_system>
Wolbachia pipientis

>  <Percent Effect>
-9.081%

$$$$
>  <molecule>
OCCn1nccc1C1CCN(CCCOc2ccc(F)cc2)CC1

>  <test_system>
Wolbachia pipientis

>  <Percent Effect>
-1.646%

$$$$
>  <molecule>
COC(=O)C(C)NCc1ccc2[nH]c(C)c(C)c2c1 (configuration not stated)

>  <test_system>
Wolbachia pipientis

>  <Percent Effect>
-1.475%

$$$$
>  <molecule>
CC(C)CNC(=O)C1=NOC2(CCN(Cc3ccc(C(C)C)cc3)C2)C1 (configuration not stated)

>  <test_system>
Wolbachia pipientis

>  <Percent Effect>
105.9%

$$$$
>  <molecule>
NC(=O)c1cnn2c(C3CCCN(C4CCOCC4)C3)ccnc12 (configuration not stated)

>  <test_system>
Wolbachia pipientis

>  <Percent Effect>
143.8%

$$$$
>  <molecule>
CNc1cc(N2CCCC2CNCc2ccccn2)ncn1 (configuration not stated)

>  <test_system>
Wolbachia pipientis

>  <Percent Effect>
-5.969%

$$$$
>  <molecule>
CN(CCCNc1cc(N2CCCC2CO)ncn1)S(C)(=O)=O (configuration not stated)

>  <test_system>
Wolbachia pipientis

>  <Percent Effect>
-14.7%

$$$$
>  <molecule>
Cc1ccc(NCc2cn3c(n2)CN(Cc2ccoc2)CC3)nn1.O=C(O)C(F)(F)F.O=C(O)C(F)(F)F

>  <test_system>
Wolbachia pipientis

>  <Percent Effect>
8.385%

$$$$
>  <molecule>
COc1ccc(S(=O)(=O)NCC(C)(O)c2cccs2)cc1Cl (configuration not stated)

>  <test_system>
Wolbachia pipientis

>  <Percent Effect>
0.9761%

$$$$
>  <molecule>
C[C@H]1CC[C@H](C(=O)N2CCC(n3cc(C4(O)CCCC4)nn3)CC2)CC1

>  <test_system>
Wolbachia pipientis

>  <Percent Effect>
3.706%

$$$$
>  <molecule>
COc1cc(C(=O)Nc2c(C)noc2C)ccc1C

>  <test_system>
Wolbachia pipientis

>  <Percent Effect>
5.924%

$$$$
>  <molecule>
COCCN1C[C@H]2CCN(C(=O)Nc3ccccc3C)CC[C@H]2S1(=O)=O

>  <test_system>
Wolbachia pipientis

>  <Percent Effect>
-14.97%

$$$$
>  <molecule>
CCOCCn1c(=O)[nH]c2cc(C(=O)N(C)Cc3ccno3)ccc21

>  <test_system>
Wolbachia pipientis

>  <Percent Effect>
10.95%

$$$$
>  <molecule>
COc1cc2cc(C(=O)O)n(C)c2c(OC)c1OC

>  <test_system>
Wolbachia pipientis

>  <Percent Effect>
-1.189%

$$$$
>  <molecule>
C[C@]1(O)CCN(Cc2c[nH]cn2)C[C@@H]1Oc1cccc(F)c1

>  <test_system>
Wolbachia pipientis

>  <Percent Effect>
125.6%

$$$$
>  <molecule>
Cc1nnc(NCC2(c3ccc(Cl)cc3Cl)CCOCC2)c(C#N)c1C

>  <test_system>
Wolbachia pipientis

>  <Percent Effect>
25.06%

$$$$
>  <molecule>
COc1cc2c(cc1OC)S(=O)(=O)N(Cc1ccccc1C)C2=O

>  <test_system>
Wolbachia pipientis

>  <Percent Effect>
-3.651%

$$$$
>  <molecule>
Cc1nccc(CNc2cc(N3CCCC3CO)ncn2)n1 (configuration not stated)

>  <test_system>
Wolbachia pipientis

>  <Percent Effect>
87.89%

$$$$
>  <molecule>
COC(=O)c1cc2c(OC)c(C)c(OC)cc2[nH]1

>  <test_system>
Wolbachia pipientis

>  <Percent Effect>
95.02%

$$$$
>  <molecule>
CCOCc1ccccc1NC(=O)NC1CCN(CC(F)(F)F)C1 (configuration not stated)

>  <test_system>
Wolbachia pipientis

>  <Percent Effect>
4.433%

$$$$
>  <molecule>
COc1cc2[nH]c(=O)c(CN3CCCC(CO)C3)cc2c(OC)c1OC (configuration not stated)

>  <test_system>
Wolbachia pipientis

>  <Percent Effect>
1.788%

$$$$
>  <molecule>
NC(=O)c1cnn2c(C3CCN(CCO)CC3)ccnc12

>  <test_system>
Wolbachia pipientis

>  <Percent Effect>
128.9%

$$$$
>  <molecule>
O=c1c2cccnc2cnn1CC(O)c1ccc(Br)cc1 (configuration not stated)

>  <test_system>
Wolbachia pipientis

>  <Percent Effect>
-15.17%

$$$$
>  <molecule>
CC(C)CNC(=O)C1=NOC2(CCN(Cc3ccoc3)C2)C1 (configuration not stated)

>  <test_system>
Wolbachia pipientis

>  <Percent Effect>
98.99%

$$$$
>  <molecule>
Cc1ccc(NC2CCN(C(=O)CCCc3cccs3)CC2)nn1

>  <test_system>
Wolbachia pipientis

>  <Percent Effect>
117.7%

$$$$
>  <molecule>
O=C(NCC1CC1)C1=NOC2(CCN(Cc3ccc(Cl)c(F)c3)C2)C1 (configuration not stated)

>  <test_system>
Wolbachia pipientis

>  <Percent Effect>
0.8389%

$$$$
